Each entry below carries its measured pIC50, system: UniProt P0DPI0.
Sequence (P0DPI0 2-448 limits assumed): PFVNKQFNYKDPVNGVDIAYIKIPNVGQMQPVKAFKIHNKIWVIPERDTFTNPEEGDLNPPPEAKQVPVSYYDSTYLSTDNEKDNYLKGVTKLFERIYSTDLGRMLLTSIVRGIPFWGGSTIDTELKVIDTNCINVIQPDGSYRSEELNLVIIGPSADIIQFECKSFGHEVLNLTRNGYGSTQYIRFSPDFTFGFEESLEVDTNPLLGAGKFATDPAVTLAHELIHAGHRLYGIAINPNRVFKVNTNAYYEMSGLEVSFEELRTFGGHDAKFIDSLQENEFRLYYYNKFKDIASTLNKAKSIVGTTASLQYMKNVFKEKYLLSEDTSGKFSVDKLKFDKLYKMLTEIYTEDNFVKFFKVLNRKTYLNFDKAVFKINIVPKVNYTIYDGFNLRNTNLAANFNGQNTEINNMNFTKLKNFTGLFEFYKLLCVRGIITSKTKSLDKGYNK
Reminder that pIC50 is minus the log10 of a molar concentration.

Guide cases for pIC50, answers given:
O=C(COc1ccccc1/C=C1\NC(=O)N(Cc2ccccc2F)C1=O)Nc1ccc(F)cc1 :: 4.66
COc1cccc(CN2C(=O)c3ccccc3[C@@H]2C(=O)NC2CCC(C)CC2)c1 (some centres undefined) :: 3.80
O=c1c2cc3c(cc2n(Cc2nc(-c4ccc(C(F)(F)F)cc4)no2)c(=O)n1Cc1nc(-c2ccc(C(F)(F)F)cc2)no1)OCO3 :: 4.80

Quick check: pIC50 of O=C(COc1ccc(/C=C2\NC(=O)N(Cc3ccccc3F)C2=O)cc1)Nc1ccc(F)cc1 ?
4.59
